test system: PPARg DBDmut IVT, anti-PPARg (DBD mutation: PPARg1 K132A/R137A, NR concentration 270 nM); test: PBM binding z-score (relative to random genomic background probes); higher = stronger binding; sequences stand for … in GC…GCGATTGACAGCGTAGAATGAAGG
Binary call on PBM binding z-score: TRUE from -0.3 upward, FALSE beneath that.

Ask: Textbook exercise: given the entry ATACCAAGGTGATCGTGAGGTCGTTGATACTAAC , state whether its PBM binding z-score is greater than or equal to -0.3.
Result: TRUE

Ask: # check: PBM binding z-score of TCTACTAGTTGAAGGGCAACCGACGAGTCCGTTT is greater than or equal to -0.3
Result: FALSE

Ask: Please check the record TTACCAATGTGAGCTGAGGTCGTTGATCCAACTC and state if its PBM binding z-score is at or above -0.3.
Result: TRUE

Ask: Does PBM binding z-score meet or surpass -0.3 for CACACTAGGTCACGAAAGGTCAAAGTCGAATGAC ?
Result: TRUE

Ask: I'd appreciate it if you could say whether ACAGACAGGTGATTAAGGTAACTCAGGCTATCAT has PBM binding z-score at least equal to -0.3.
Result: FALSE

Ask: Decide: PBM binding z-score of CGTCAAAGTTCATCTAAGGTAACGTAAAGCACGC >= -0.3?
Result: TRUE

Numbers sourced from the supplement of paper PMC6555819.
